# method: Solubility Test I (stepwise solvent addition)
# Type: physicochemical
# conditionContext: organic solvent or mixture, thermodynamic from solid; solvent 2-MeTHF; room temperature
readoutName: solubility

INSERT INTO results (compound, observedmeasurement) VALUES
  ('CCOc1cc(-c2ccc(N3CC4CC(C3)N4Cc3ccc(OC)nc3)nc2)c2c3cn[nH]c3nn2c1 (single isomer, unassigned) [Crystal form A]', '2400 to 8000 µg/mL');

====

# method: Solubility Test II (saturated solubility by HPLC)
# Type: physicochemical
# conditionContext: water, 37 °C, thermodynamic from solid
# Procedure: Chromatographic column: Waters XTERRA RP18, 4.6 mm×150 mm, 3.5 μm or an equivalent chromatographic column. […] Each medium sample solution was taken, 10 μL of each test sample solution was precisely measured and injected into a liquid chromatograph according to the chromatography conditions described above, and the chromatogram was recorded. The saturated solution degree of each medium was calculated according to the formula below. […]
readoutName: solubility at 24 h (µg/mL)

INSERT INTO results (compound, readoutunits, observedmeasurement) VALUES
  ('CCOc1cc(-c2ccc(N3CC4CC(C3)N4Cc3ccc(OC)nc3)nc2)c2c3cn[nH]c3nn2c1 (single isomer, unassigned) [Crystal form A]', 'µg/mL', 0.61);
